- Target Under Test: T1, Human IL2Rγ extracellular domain expressed with a C-terminal myc-myc-hexahistidine tag (human)
- T1 construct: also called hIL-2Rg-MMH; hIL-2RG-MMH
- T1 chain: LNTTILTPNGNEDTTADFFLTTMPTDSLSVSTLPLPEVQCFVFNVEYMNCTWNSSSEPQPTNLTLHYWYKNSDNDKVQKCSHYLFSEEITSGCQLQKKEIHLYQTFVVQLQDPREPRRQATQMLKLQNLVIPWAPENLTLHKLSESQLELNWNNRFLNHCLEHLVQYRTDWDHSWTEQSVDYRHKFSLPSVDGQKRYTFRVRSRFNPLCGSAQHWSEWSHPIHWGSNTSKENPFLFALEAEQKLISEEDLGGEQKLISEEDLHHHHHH
- Assay Protocol: SPR, captured mAb, 37C, dissociation pH 6.0
Readout Label: t1/2 (min)
Output spec: scalar in min, unitless text.

Example cases with answers are listed next.
Binder: H4H12874P (antibody, human IgG4 S228P, kappa, V domains shown, anti-IL2Rgamma mAb expressed with human IgG4 Fc) VH: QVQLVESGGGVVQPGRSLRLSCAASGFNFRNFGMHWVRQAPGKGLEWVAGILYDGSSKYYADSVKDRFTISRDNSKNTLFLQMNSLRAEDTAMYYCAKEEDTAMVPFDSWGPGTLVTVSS VL: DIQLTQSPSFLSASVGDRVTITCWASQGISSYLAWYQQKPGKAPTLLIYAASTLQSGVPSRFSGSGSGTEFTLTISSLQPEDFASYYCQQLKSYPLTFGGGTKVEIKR
Unit: min
Meas Value: 4
--
Binder: H4H12900P (antibody, human IgG4 S228P, kappa, V domains shown, anti-IL2Rgamma mAb expressed with human IgG4 Fc) VH: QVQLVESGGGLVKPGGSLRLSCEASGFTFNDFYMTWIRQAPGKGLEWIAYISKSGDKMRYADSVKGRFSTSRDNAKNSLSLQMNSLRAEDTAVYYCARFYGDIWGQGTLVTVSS VL: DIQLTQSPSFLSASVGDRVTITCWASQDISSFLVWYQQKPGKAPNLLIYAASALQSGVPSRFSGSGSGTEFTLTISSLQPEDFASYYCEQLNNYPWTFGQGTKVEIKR
Unit: min
Meas Value: 4
--
Binder: H4H12890P (antibody, human IgG4 S228P, kappa, V domains shown, anti-IL2Rgamma mAb expressed with human IgG4 Fc) VH: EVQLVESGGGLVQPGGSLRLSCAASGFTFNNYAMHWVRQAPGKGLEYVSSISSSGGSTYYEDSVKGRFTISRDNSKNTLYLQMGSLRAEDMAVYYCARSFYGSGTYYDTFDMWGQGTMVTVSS VL: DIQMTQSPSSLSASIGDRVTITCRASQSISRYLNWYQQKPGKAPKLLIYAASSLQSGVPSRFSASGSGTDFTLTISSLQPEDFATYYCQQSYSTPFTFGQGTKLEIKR
Unit: min
Meas Value: 4
--
Binder: H4H12899P (antibody, human IgG4 S228P, kappa, V domains shown, anti-IL2Rgamma mAb expressed with human IgG4 Fc) VH: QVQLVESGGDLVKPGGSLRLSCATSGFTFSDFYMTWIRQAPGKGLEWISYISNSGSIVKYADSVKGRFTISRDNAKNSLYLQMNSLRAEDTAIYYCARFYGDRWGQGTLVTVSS VL: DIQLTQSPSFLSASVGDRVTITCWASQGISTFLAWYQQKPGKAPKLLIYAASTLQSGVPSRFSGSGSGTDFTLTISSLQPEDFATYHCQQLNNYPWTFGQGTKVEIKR
Unit: min
Meas Value: 5
--
Binder: H4H12871P (antibody, human IgG4 S228P, kappa, V domains shown, anti-IL2Rgamma mAb expressed with human IgG4 Fc; also called REGN9434) VH: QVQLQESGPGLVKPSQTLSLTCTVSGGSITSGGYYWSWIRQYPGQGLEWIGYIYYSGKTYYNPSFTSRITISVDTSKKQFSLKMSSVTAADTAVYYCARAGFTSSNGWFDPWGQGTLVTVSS VL: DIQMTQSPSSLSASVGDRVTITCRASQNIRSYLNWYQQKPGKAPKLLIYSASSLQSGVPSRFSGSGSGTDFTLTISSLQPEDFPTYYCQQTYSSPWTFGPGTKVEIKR
Unit: min
Meas Value: 5
--
Binder: H4H12889P (antibody, human IgG4 S228P, kappa, V domains shown, anti-IL2Rgamma mAb expressed with human IgG4 Fc; also called REGN7257) VH: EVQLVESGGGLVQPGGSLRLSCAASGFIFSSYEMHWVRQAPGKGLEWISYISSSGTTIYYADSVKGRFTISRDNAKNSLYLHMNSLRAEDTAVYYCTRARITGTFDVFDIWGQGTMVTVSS VL: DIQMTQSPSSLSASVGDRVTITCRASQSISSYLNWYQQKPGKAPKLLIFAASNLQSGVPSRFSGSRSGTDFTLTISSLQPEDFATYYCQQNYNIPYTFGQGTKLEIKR
Unit: min
Meas Value: 6
--
Binder: H4H12886P (antibody, human IgG4 S228P, kappa, V domains shown, anti-IL2Rgamma mAb expressed with human IgG4 Fc) VH: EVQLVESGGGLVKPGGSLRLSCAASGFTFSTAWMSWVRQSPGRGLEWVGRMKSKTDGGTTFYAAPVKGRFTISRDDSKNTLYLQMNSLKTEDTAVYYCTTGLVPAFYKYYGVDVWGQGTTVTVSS VL: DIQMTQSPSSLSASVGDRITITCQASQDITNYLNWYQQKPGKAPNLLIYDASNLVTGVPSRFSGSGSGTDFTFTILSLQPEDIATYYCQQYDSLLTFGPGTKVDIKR
Unit: min
Meas Value: 5
--
Binder: H4H13538P (antibody, human IgG4 S228P, kappa, V domains shown, anti-IL2Rgamma mAb expressed with human IgG4 Fc) VH: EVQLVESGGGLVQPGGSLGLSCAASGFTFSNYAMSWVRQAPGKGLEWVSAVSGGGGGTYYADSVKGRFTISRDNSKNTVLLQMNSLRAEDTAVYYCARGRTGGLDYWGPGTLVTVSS VL: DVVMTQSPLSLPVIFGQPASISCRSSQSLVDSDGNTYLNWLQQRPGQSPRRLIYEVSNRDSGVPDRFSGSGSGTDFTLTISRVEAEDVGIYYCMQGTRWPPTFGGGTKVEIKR
Unit: min
Meas Value: 8

So, H4H12884P (antibody, human IgG4 S228P, kappa, V domains shown, anti-IL2Rgamma mAb expressed with human IgG4 Fc) VH: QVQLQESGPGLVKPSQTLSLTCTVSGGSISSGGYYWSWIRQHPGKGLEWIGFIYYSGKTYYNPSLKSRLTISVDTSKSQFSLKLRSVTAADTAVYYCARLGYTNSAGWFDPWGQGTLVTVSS VL: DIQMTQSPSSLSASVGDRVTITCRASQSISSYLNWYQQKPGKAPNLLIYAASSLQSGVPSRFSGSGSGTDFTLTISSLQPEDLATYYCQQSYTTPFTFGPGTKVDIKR ? Its t1/2 was 3

t1/2 measured on H4H12863P (antibody, human IgG4 S228P, kappa, V domains shown, anti-IL2Rgamma mAb expressed with human IgG4 Fc) VH: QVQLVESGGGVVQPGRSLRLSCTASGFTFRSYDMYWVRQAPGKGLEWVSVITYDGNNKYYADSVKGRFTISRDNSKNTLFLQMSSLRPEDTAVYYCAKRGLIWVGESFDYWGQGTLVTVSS VL: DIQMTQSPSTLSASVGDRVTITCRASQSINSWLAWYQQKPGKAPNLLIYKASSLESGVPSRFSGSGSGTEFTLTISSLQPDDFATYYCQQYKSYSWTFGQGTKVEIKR = 5

t1/2 recorded for this binder, H4H13541P (antibody, human IgG4 S228P, kappa, V domains shown, anti-IL2Rgamma mAb expressed with human IgG4 Fc) VH: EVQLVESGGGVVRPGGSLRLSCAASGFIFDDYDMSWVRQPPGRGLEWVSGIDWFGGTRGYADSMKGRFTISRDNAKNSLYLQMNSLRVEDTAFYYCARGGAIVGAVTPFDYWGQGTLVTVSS VL: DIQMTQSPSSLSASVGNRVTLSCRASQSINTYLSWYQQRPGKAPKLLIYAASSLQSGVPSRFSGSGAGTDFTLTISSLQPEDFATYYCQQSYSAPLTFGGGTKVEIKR , is 7
